Cited source for all entries: paper PMC5540273

Tested on: FGFR4;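 further: KINOMEscan kinase panel screen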
Measurement Context: concentration: 1 μM, replicates: in singlicate; n = 1
I'd appreciate it if you could supply %Inh values for the items below.
Answers are plain numbers, in %.

| Molecule | %Inh [%] |
| --- | --- |
| O=C(NC1CCN(c2ccnc(Nc3ccc(F)cc3)n2)C1)c1cc2ccccc2s1 (stereo not drawn) | 13 |
| CN1CCN(Cc2cccc(-c3ccc4c(Nc5ccc(Oc6ccccc6)cc5)ccnc4c3)c2)CC1 | 0 |
| Nc1ncc(-c2ccc3nccc(-c4ccncc4)c3c2)cc1S(=O)(=O)N1CCOCC1 | 0 |

Can you give me %Inh for all of these, one by one?
1. Cc1ccc(C(=O)Nc2ccc(Nc3ccnc4cc(-c5nccs5)ccc34)cc2O)cc1.Cl
2. O=C(Nc1ccccc1F)NC1CCN(c2ccnc(Nc3ccc(F)cc3)n2)CC1

## Output
[0, 2]

Can you give me %Inh for all of these, one by one?
1. COc1cc(Nc2nccc(-c3c(-c4cccc(NC(=O)c5c(F)cccc5F)c4)nn4ncccc34)n2)cc(OC)c1OC
2. COc1ccc(CNC(=O)NC2CCN(c3ccnc(Nc4ccc(F)cc4)n3)CC2)cc1
3. COc1cccc(NC(=O)NC2CCN(c3ccnc(Nc4cc(OC)c(OC)c(OC)c4)n3)C2)c1 (stereo not drawn)
4. Nc1n[nH]c2cnc(-c3ccccc3)cc12

## Output
9
0
1
13

Can you give me %Inh for all of these, one by one?
1. O=c1[nH]cc(-c2ccc(N3CCOCC3)cc2)c2sc(-c3cn[nH]c3)cc12
2. Nc1ncc(-c2cccnc2)c2scc(-c3ccc4c(c3)CCN4C(=O)Cc3ccccc3)c12
3. CCc1ccc(-c2ccc3c(c2)-c2c(cnn2C)S(=O)(=O)N3C)cc1
4. CCS(=O)(=O)c1ccc(OC)c(Nc2nccc(-c3c(-c4cccc(NC(=O)c5c(F)cccc5F)c4)nn4ncccc34)n2)c1
5. CC(=O)Nc1nc2cnc(Nc3cc(NC(=O)c4cccc(C5(C#N)CC5)c4Cl)ccc3C)nc2s1
6. COc1ccc(-c2coc3ccc(-c4nnc(SCc5ccc(OC)c(C(F)(F)F)c5)o4)cc23)cc1
7. Cc1ccc(S(=O)(=O)Nc2ccc(Nc3nccc(Nc4cccc5[nH]ncc45)n3)cc2)cc1

## Output
1: 0; 2: 12; 3: 0; 4: 16; 5: 0; 6: 2; 7: 0
